# target_system: T1, recombinant human DLL3 (human, UniProt Q9NYJ7 27-492)
# T1 sequence: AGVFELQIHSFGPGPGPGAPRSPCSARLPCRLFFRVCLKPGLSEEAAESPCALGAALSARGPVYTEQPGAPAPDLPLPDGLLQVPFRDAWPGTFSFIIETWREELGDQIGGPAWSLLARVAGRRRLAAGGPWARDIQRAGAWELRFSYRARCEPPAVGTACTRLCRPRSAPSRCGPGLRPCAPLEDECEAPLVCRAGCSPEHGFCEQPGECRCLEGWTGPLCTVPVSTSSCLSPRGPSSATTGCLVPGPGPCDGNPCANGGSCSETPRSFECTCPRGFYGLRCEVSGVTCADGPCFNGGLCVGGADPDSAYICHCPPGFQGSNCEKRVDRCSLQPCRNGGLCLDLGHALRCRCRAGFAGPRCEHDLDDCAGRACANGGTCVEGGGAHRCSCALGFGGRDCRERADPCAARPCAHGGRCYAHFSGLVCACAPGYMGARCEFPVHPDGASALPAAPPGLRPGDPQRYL
# assay_overview: Octet binning on SA sensor; Antibody A (biotinylated, loaded first): DL312-SG1; then 20 nM human DLL3, then 80 nM Antibody B
measured_endpoint: competition ratio (Antibody B to Antibody A)
Give only the figure.

Worked examples follow.
- binder: "DL301-SG1 (antibody, human IgG1, kappa, V domains shown, Variable regions of a previously reported anti-DLL3 antibody on SG1/SK1; Also used biotin-labelled as a first antibody) VH: QVQLQQSGADLVRPGTSVKVSCKASGYAFTNYLIEWIKQRPGQGLEWIGVMNPGSGGTHYSEKFRGKATLTADKSSSTAYMQLISLTSDDSAVYFCARSDYDYVTYAMDYWGQGTSVTVSS VL: DIKMTQSPSSMYASLGERVTITCKASQDINSYLIWFQQKPGKSPKTLIYRTNRLVDGVPSRFSGSGSGQDYSLTISSLEYGDMGIYYCLQYDEFPFTFGSGTKLEIKR"
  numeric_result: 1.3
- binder: "DLL3-14-SG1 (antibody, human IgG1, kappa, V domains shown, Variable regions of a previously reported anti-DLL3 antibody on SG1/SK1; Used as a second antibody only) VH: QVQLVQSGAEVKKPGASVKVSCKASGYTFTNYYMHWVRQAPGLGLEWMGIINPSDGSTSYAQKFQGRVTMTRDTSTNTVYMDLSSLRSEDTAVYYCARGGNSAFYSYYDMDVWGQGTTVTVSS VL: DVVMTQTPLSLPVTLGQPASISCRSSQSLVYRDGNTYLSWFQQRPGQSPRRLIYKVSNWQSGVPDRFSGGGSGTDFTLKISRVEAEDVGVYYCMQGTHWPPTFGQGTKVEIKR"
  numeric_result: 1.5

Now look at this one.
Please indicate competition ratio (Antibody B to Antibody A) recorded for DL306-SG1 (antibody, human IgG1, kappa, V domains shown, Variable regions of a previously reported anti-DLL3 antibody on SG1/SK1; Also used biotin-labelled as a first antibody) VH: EVQLQQSGPELVKPGASVKMSCRASGYTFTDYYMKWVKQSHGKSLEWIGDINPNNGDTFYNQKFKGKATLTIDKSSSTAYMQLNSLTSDDSAVYYCARDGNYAYFDYWGQGTTLTVSS VL: DIVLTQSPASLAVSLGQRATISCRASKSVSTSGYSYMHWYQQKPGQPPKLLIFLASNLESGVPARFSGSGSGTDFTLNIHPVEEEDAATYYCQHSRHLPWTFGGGTKLEIKR
1.2
